These measurements were taken from ChEMBL document CHEMBL1201862.

molecular target: Cytochrome P450 2D6 (Homo sapiens);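 further: CYP2D6 member of a cytochrome P450 panel assay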
Sequence (P10635 whole entry): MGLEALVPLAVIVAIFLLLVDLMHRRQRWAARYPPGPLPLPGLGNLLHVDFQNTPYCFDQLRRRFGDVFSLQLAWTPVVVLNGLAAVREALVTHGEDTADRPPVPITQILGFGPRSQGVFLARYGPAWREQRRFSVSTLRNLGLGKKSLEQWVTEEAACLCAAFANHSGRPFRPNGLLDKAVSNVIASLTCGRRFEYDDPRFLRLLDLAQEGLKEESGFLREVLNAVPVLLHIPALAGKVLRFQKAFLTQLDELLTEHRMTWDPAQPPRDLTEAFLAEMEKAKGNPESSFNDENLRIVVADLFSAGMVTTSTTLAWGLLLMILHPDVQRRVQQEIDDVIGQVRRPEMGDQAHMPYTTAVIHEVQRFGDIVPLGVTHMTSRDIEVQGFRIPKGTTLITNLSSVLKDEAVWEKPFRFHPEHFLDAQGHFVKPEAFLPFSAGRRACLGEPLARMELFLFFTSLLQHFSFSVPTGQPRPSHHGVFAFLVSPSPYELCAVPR
# AC50 annotations

Use these answered entries as a reference point.
# COMPOUND, AC50
records = [
    ("CC(C)(C)c1[nH]nc2c1C(c1ccc(OC(=O)c3ccco3)cc1)C(C#N)=C(N)O2 (stereo unspecified)", "15.8 µM (inconclusive)"),
    ("O=c1[nH]c2cc3c(cc2cc1CN(CCCO)Cc1nnnn1Cc1ccc(F)cc1)OCO3", "12.6 µM (inconclusive)"),
    ("Cc1ccc(-c2nnc(-c3ccccc3S(=O)(=O)Cc3ccc(Cl)cc3)o2)cc1", "0.0355 µM (inconclusive)"),
]

# query: AC50 of entry CCn1ccc(C(=O)Oc2ccc(Cl)cc2)n1
22.4 µM (inconclusive)

Input O=C(Nc1ccccc1)c1cc([N+](=O)[O-])ccc1Cl
10 µM (inconclusive)

Input [O-][S+](Cc1cc(Oc2ccccc2)nc(-c2ccccc2)n1)c1ccccc1 (stereo unspecified)
1.26 µM (inconclusive)

Input CN(C)C(=O)c1ccc(-c2nccc(NCc3ccccc3)n2)cc1
39.8 µM (inconclusive)
